Values were extracted from paper PMC4336141.

System: adult B. malayi
Experiment Notes: Adult Brugia malayi worm motility assay (Worminator) in vitro
Type: cell-based
Condition Info: B. malayi, Male, Adult, Day 3, motility
pIC50: −log10 of the molar value.

>  <Compound>
CC[PH](CC)(CC)[Au][S][C@@H]1O[C@H](COC(C)=O)[C@@H](OC(C)=O)[C@H](OC(C)=O)[C@H]1OC(C)=O [auranofin]

>  <pIC50>
6.52

$$$$

###

Test system: adult female O. ochengi
Experiment Notes: Adult female Onchocerca ochengi viability, MTT/formazan assay in vitro
Format: cell-based
Condition Info: Day 7, MTT/formazan
Reported Property: IC50 (nM)

>  <Compound Structure String>
CC[PH](CC)(CC)[Au][S][C@@H]1O[C@H](COC(C)=O)[C@@H](OC(C)=O)[C@H](OC(C)=O)[C@H]1OC(C)=O

>  <Recorded Value>
300

$$$$
